- System: Mus musculus
- Test Method Notes: Anti-nociceptive activity in ip dosed Swiss mouse assessed as inhibition of acetic acid-induced writhing dosed 40 mins before acetic acid injection and measured over 25 mins relative to control
- Format: functional
Quantity Kind: Emax (%)

                            chemical_smiles  experimental_value
0  Cc1c(N(C)CS(=O)(=O)O)c(=O)n(-c2ccccc2)n1C                74.8
1                 NCCNCCNc1ccnc2cc(Cl)ccc12                86.4
2           NCCNCCNc1ccnc2cc(C(F)(F)F)ccc12                96.7
3           NCCNCCNc1cc(C(F)(F)F)nc2ccccc12                95.1

Origin of the recorded values: ChEMBL document CHEMBL3596111
